Test: Pharmacokinetics of caspofungin during continuous venovenous hemodiafiltration (CVVHD)
Assay type: in vivo, human
Conditions: human, in vivo, iv, patient 2; 2 h after infusion ended; steady state, CVVHD; HPLC; read-out: Arterial caspofungin concentration
Protocol: The aim of the present study was to describe the pharmacokinetics of caspofungin in 12 critically ill adult patients with suspected or proven invasive candidiasis who were receiving continuous venovenous hemodiafiltration (CVVHD). CVVHD was performed using a polysulfone hemofilter (Fresenius, Germany). Caspofungin was administered at usual doses. […]
ENDPOINT: level at 2 h (ng/mL)
Could you give me the number in ng/mL? Just the number is fine.

INPUT: Write down level at 2 h measured for item `CC[C@H](C)C[C@H](C)CCCCCCCCC(=O)N[C@H]1C[C@@H](O)[C@@H](NCCN)NC(=O)[C@@H]2[C@@H](O)CCN2C(=O)[C@H]([C@H](O)CCN)NC(=O)[C@H]([C@H](O)[C@@H](O)c2ccc(O)cc2)NC(=O)[C@@H]2C[C@@H](O)CN2C(=O)[C@H]([C@@H](C)O)NC1=O`
OUTPUT: 5470

Source listed as paper PMC5278571.
